# METHOD DESCRIPTION: Plasma protein binding, dog
# Assay type: in vitro ADME
ATTRIBUTE MEASURED: fraction unbound
I'd appreciate a reply containing only the number, no unit.

Any idea what fraction unbound was measured for CC[C@@H]1CN(C(=O)NCC(F)(F)F)C[C@@H]1c1cnc2cnc3[nH]ccc3n12 ?
0.82

====

# METHOD DESCRIPTION: Pharmacokinetics in rat
# Format: in vivo
# CONDITION CONTEXT: female, Sprague-Dawley, rat, plasma, po, 10 mg/kg/day, rat F, oral 10 mg/kg/day, Day 1, mean (SD)
ATTRIBUTE MEASURED: Cmax (ng/mL)
Field format: number, assumed ng/mL, no unit text.

Any idea what Cmax was measured for CC[C@@H]1CN(C(=O)NCC(F)(F)F)C[C@@H]1c1cnc2cnc3[nH]ccc3n12 [Compound 1] ?
468

====

# METHOD DESCRIPTION: in vivo
# CONDITION CONTEXT: both, rat, po
ATTRIBUTE MEASURED: NOAEL at 4 weeks (mg/kg/day)
Field format: number, assumed mg/kg/day, no unit text.

Any idea what NOAEL at 4 weeks was measured for CC[C@@H]1CN(C(=O)NCC(F)(F)F)C[C@@H]1c1cnc2cnc3[nH]ccc3n12 [Compound 1] ?
50

====

# METHOD DESCRIPTION: Metabolic stability in hepatocytes, dog
# Assay type: in vitro ADME
# CONDITION CONTEXT: read-out: intrinsic clearance in hepatocytes (converted)
ATTRIBUTE MEASURED: CLint scaled at 1 μM (mL/min/kg)
Field format: number, assumed mL/min/kg, no unit text.

Any idea what CLint scaled at 1 μM was measured for CC[C@@H]1CN(C(=O)NCC(F)(F)F)C[C@@H]1c1cnc2cnc3[nH]ccc3n12 [Compound 1] ?
6.92

====

# METHOD DESCRIPTION: Metabolic stability in liver microsomes, human
# Type: in vitro ADME
# CONDITION CONTEXT: read-out: intrinsic clearance in liver microsomes (converted)
ATTRIBUTE MEASURED: CLint scaled at 0.5 μM (mL/min/kg)
Field format: number, assumed mL/min/kg, no unit text.

Any idea what CLint scaled at 0.5 μM was measured for CC[C@@H]1CN(C(=O)NCC(F)(F)F)C[C@@H]1c1cnc2cnc3[nH]ccc3n12 ?
31.2

====

# METHOD DESCRIPTION: Pharmacokinetics in monkey
# Format: in vivo
# CONDITION CONTEXT: plasma, oral 1 mg/kg single dose, mean (SD)
ATTRIBUTE MEASURED: Cmax (ng/mL)
Field format: number, assumed ng/mL, no unit text.

Any idea what Cmax was measured for CC[C@@H]1CN(C(=O)NCC(F)(F)F)C[C@@H]1c1cnc2cnc3[nH]ccc3n12 [Compound 1] ?
134

====

# METHOD DESCRIPTION: Pharmacokinetics in rat
# Assay type: in vivo
# CONDITION CONTEXT: female, Sprague-Dawley, plasma; rat F, oral 200 mg/kg/day, Day 1, mean (SD)
ATTRIBUTE MEASURED: AUC (µg·h/mL)
Field format: number, assumed µg·h/mL, no unit text.

Any idea what AUC was measured for CC[C@@H]1CN(C(=O)NCC(F)(F)F)C[C@@H]1c1cnc2cnc3[nH]ccc3n12 ?
108

====

# METHOD DESCRIPTION: Pharmacokinetics in rat
# Type: in vivo
# CONDITION CONTEXT: plasma; rat, IV 3 mg/kg single dose
ATTRIBUTE MEASURED: half-life (h)
Field format: number, assumed h, no unit text.

Any idea what half-life was measured for CC[C@@H]1CN(C(=O)NCC(F)(F)F)C[C@@H]1c1cnc2cnc3[nH]ccc3n12 ?
3
